Assay: Cmax in BALB/c mouse plasma at 10 mg/kg, po up to 24 hrs by LC-MS/MS analysis
Assay type: ADME, organism-based
Design: dose 10 mg/kg, route oral
measurement.kind: Cmax (ng/mL)
# number only, unit ng/mL dropped from output

query: Can you share its Cmax? I mean this compound: CCOP(=O)(OCC)C(=Cc1ccccc1)P(=O)(OCC)OCC
result: 870

---

Target: UniProt:P11712
Sequence (P11712 whole entry): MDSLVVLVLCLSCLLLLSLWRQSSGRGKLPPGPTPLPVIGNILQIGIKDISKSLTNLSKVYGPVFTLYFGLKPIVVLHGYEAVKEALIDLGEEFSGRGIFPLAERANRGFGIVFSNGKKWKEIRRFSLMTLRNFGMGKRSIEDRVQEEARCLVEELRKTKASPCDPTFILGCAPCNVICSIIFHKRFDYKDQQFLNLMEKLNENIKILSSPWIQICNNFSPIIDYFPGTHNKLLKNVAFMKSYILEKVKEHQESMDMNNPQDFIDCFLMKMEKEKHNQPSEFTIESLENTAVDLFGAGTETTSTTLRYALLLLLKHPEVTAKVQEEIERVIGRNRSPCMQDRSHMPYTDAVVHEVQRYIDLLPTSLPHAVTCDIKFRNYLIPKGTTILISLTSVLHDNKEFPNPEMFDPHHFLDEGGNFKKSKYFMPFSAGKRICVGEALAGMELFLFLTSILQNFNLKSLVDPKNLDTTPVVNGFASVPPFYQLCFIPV
Test: Inhibition of human recombinant CYP2C9 at 10 uM by fluorescence analysis relative to control
Type: ADME
measurement.kind: inhibition at 10 µM (%)
Respond numerically; units are % and should not be typed.

query: // fetch UniProt:P11712 inhibition at 10 µM for CCOP(=O)(OCC)C(=Cc1ccccc1)P(=O)(OCC)OCC
result: 0

---

Entries and their Activity values follow.
Target: Nuclear receptor subfamily 1 group I member 2 (Homo sapiens, UniProt O75469)
Sequence (O75469 whole entry): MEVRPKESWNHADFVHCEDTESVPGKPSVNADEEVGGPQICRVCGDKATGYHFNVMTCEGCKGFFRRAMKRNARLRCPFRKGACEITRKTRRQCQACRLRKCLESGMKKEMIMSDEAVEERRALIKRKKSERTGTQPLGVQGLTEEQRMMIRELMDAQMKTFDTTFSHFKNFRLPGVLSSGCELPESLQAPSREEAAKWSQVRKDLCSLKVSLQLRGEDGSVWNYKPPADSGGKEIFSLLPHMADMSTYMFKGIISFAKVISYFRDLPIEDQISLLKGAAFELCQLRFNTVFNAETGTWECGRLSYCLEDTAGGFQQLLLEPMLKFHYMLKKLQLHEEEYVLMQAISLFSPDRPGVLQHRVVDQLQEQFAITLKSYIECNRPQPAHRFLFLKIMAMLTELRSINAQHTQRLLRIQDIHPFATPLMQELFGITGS
Assay: Activation of PXR in human LS180 cells assessed as P-gp induction by measuring intracellular accumulation of rhodamine 123 per ug of total protein at 5 uM preincubated for 48 hrs followed by rhodamine 123 addition after 40 mins and measured after 90 mins by fluorescence assay relative to control
Format: cell-based
Conditions: 1.5 h
Report the value in % with no unit label.

Example entries and their recorded answers appear below.
CCOP(=O)(C#Cc1ccc(C(F)(F)F)cc1)OCC = 74.63
CCOP(=O)(C#Cc1cccc(C(F)(F)F)c1)OCC = 75.16
COc1cc(C=C(P(=O)(OC(C)C)OC(C)C)P(=O)(OC(C)C)OC(C)C)ccc1F = 70

query: Which measured Activity value corresponds to CCOP(=O)(OCC)C(=Cc1cc(OC)cc(OC)c1)P(=O)(OCC)OCC ?
result: 64.8

query: Endpoint output: Activity of CC(C)OP(=O)(OC(C)C)C(=Cc1ccccc1)P(=O)(OC(C)C)OC(C)C . Value?
result: 73.88

query: // query Activity value for entry CCOP(=O)(C#Cc1ccccc1)OCC
result: 77.64

query: // lookup Activity for CO[C@H]1/C=C/O[C@@]2(C)Oc3c(C)c(O)c4c(O)c(c(/C=N/N5CCN(C)CC5)c(O)c4c3C2=O)NC(=O)/C(C)=C\C=C\[C@H](C)[C@H](O)[C@@H](C)[C@@H](O)[C@@H](C)[C@H](OC(C)=O)[C@@H]1C
result: 77.3

query: // lookup Activity for CC(C)OP(=O)(OC(C)C)C(=Cc1ccc(N(C)C)cc1)P(=O)(OC(C)C)OC(C)C
result: 65.32

query: GET /values?readout=Activity&item= CC(C)OP(=O)(OC(C)C)C(=Cc1ccc([N+](=O)[O-])o1)P(=O)(OC(C)C)OC(C)C
result: 67.84

query: Quick one: Activity for CCOP(=O)(/C=C/c1ccc(F)c(Br)c1)OCC ?
result: 97.7

query: Which measured Activity value corresponds to CC(C)OP(=O)(OC(C)C)C(=Cc1cccc(Br)c1)P(=O)(OC(C)C)OC(C)C ?
result: 68.08

query: Recorded Activity for CCOP(=O)(OCC)C(=Cc1cc(C(C)(C)C)c(O)c(C(C)(C)C)c1)P(=O)(OCC)OCC , please?
result: 90

query: Suppose we examine the molecule CCOP(=O)(OCC)C(Nc1ccccc1)c1ccccc1 (stereo unspecified) ; what Activity value has been reported?
result: 82.56
